Molecular target: T1, Cyk3, Q07533
T1 sequence (Q07533 1-83, looked up): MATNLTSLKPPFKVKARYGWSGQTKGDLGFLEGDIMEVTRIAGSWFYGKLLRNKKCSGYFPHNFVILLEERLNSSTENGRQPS
Assay: SPOT array
Details: median of control spots 1451
measurementType: SPOT intensity

Example entries begin here.
- ALRRRLPVTRSKINW: 2
- RMVRRRPLRVQFSAR: 12
- PIVPSSPAPPLPLSG: 0

P: RKNRAPPQRPRFNRD
Q: MSPLGAPPPPPHKDH
R: KNRKNLPTIPIRLSG
[ask] Give the ascending ranking of the items by reported SPOT intensity. API: response body holds the labels in the requested order.
[reply] Q, R, P
